assay.info: inhibitors of E-selectin induction by TNFa, primary screen, imaging, HUVEC, immunofluorescence, MLSMR starter and 10KST1 sets (AID 487);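 for nuclei count: 100% = median nuclei count of all wells on the same plate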
experimental.setup: HUVEC TNFalpha-induced E-selectin immunofluorescence imaging, at 2 µM; measured here: cell number, toxicity
recorded.endpoint: nuclei count

// below: answered molecules
Cc1sc(-n2c(C)ccc2C)c(C#N)c1C: 144%
COc1cc(Cl)c(C)cc1NC(=O)COC(=O)c1cnc(C)cn1: 110%
COc1ccc(OC)c(NS(=O)(=O)c2ccc(N3CCCC3=O)cc2)c1: 139%
C=CCn1c(SCC(=O)c2ccc(OC)cc2)nnc1C(C)NC(=O)c1cccs1 (stereo unspecified): 132%
CCNC(=O)c1cc2c(=O)n3cccc(C)c3nc2n(CCc2ccccc2)c1=N: 106%
O=[n+]1c2c(n([O-])c3cc(F)c(N4CCCC4)cc31)CCC2: 123%

## Input Which value of nuclei count has been reported for O=C(NCC(F)(F)F)Nc1nnc(C(F)(F)F)s1 in the records?
## Output 166%

## Input Ok, now COc1ccc(Cl)cc1NC(=O)CCN1CCN(c2ccccc2C)CC1
## Output 112%

## Input Ok, now CCOC(=O)CSc1nc(-c2ccc3c(c2)OCO3)ccc1C#N
## Output 120%

## Input Ok, now Cc1nnc2n(-c3ccccc3)c(=O)c3c4c(sc3n12)COC(C)(C)C4
## Output 98.4%

## Input Ok, now CCCOc1ccc(NC2=CC(=O)CC(C)(C)C2)cc1
## Output 117%

* * *

assay.info: inhibitors of mutant huntingtin aggregation, primary screen, imaging, exon1htt(103Q)mCFP cells, high-content imaging (AID 483);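 note: compound exposure lasted 3 days before fixation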
experimental.setup: exon1htt(103Q)mCFP cell line, aggregate imaging, at 2 µM; stronger effect = higher value
Catalogue of inhibition of aggregation values
API: value field is a number in %; no unit string.

// below: answered compounds
Cc1ccc(NC(=O)CN(C)S(=O)(=O)c2cccc3nsnc23)cc1Cl: 7.2
CCOC(=O)C(NC(=O)c1ccc(OC)cc1)(N1CCOCC1)C(F)(F)F (stereo unspecified): -14.5
O=C(Nc1ccc2c(c1)OCO2)C(c1ccc(Cl)cc1)N1CCN(C(=O)c2ccco2)CC1 (stereo unspecified): -23.2
O=C(O)CCn1[nH]c(=O)ccc1=O: 37
CCOC(=O)c1ccc(Oc2nc(SC)nc(N(C)C)n2)cc1: -5.2

## Input Which value of inhibition of aggregation has been reported for COc1ccc(S(=O)(=O)N2CCN(c3ccc(C)cc3C)CC2)cc1OC in the records?
## Output -17.1

## Input Ok, now O=C(Nc1ccccc1)N(O)c1ccc(Cl)cc1
## Output 38.9

* * *

assay.info: inhibitors of E-selectin induction by TNFa, primary screen, imaging, HUVEC, immunofluorescence, MLSMR starter and 10KST1 sets (AID 487);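 for inhibition: signal is fraction of cell area covered by stained E-selectin grains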
experimental.setup: HUVEC TNFalpha-induced E-selectin immunofluorescence imaging, at 2 µM; stronger effect = higher value
Class True: inhibition at least -20%. Class False: inhibition below -20%.

## Input Threshold query (inhibition >= -20%) on COc1cccc(C(=O)Nc2cc(C)c3c(=O)oc4ccccc4c3n2)c1
## Output True

## Input Ok, now CN(C)CCCN1C(=O)CSC1c1ccccc1 (configuration not stated)
## Output False

## Input Ok, now Cc1ccc(NC2=NCC(=O)N2c2ccc3c(c2)OCCO3)c(C)c1
## Output False

## Input Ok, now O=c1sc(Nc2ccccc2)nc2ccsc12
## Output False

## Input Ok, now O=C1OC2(c3ccccc3)C3CCCC2C13
## Output True

## Input Ok, now Cc1nnc(SCC(=O)N2CCOCC2)c2ccccc12
## Output False

## Input Ok, now CCOC(=O)N1CCC(c2cc(=O)n3[nH]cc(C(=O)OC)c3n2)CC1
## Output True

## Input Ok, now CCOC(=O)c1ccc(NC(=O)CSCc2ccco2)cc1
## Output True

## Input Ok, now CCc1nc(NCC2CCCO2)c(C#N)c2c1COC(C)(C)C2 (configuration not stated)
## Output True

## Input Ok, now C=CCOc1ccc(/C=N/n2cncn2)cc1OC
## Output False

## Input Ok, now CCc1[nH]c(=O)c(C#N)c2c1CSC(C)(C)C2
## Output False

## Input Ok, now N#Cc1ccc(-c2csc(NC(=O)C3CC3)n2)cc1
## Output False
